# Test Method Notes: Phase 1 study Part 2: food effect on plasma PK of LUM-201 capsule
# Assay type: in vivo, human
# Condition Label: Part 2, Treatment A: 85.3 mg capsule, oral, fasted
Parameter Measured: λz, Arithmetic Mean (h⁻¹)
Number only, in h⁻¹; omit the unit.

*Q* Return λz, Arithmetic Mean (reported value) for this compound: "CC(C)(N)C(=O)N[C@H](COCc1ccccc1)C(=O)N1CCC2(CC1)CN(S(C)(=O)=O)c1ccccc12"
*A* 0.0874

* * *

# Test Method Notes: Phase 1 study Part 2: food effect on plasma PK of LUM-201 capsule
# Assay type: in vivo, human
# Condition Label: human, plasma, po, 85.3 mg, Part 2, Treatment B: 85.3 mg capsule, oral, 30 minutes after start of high-fat meal; read-out: Cmax, Geometric Mean
# Description: This was a single center, open-label, randomized, Phase 1 study in healthy adult subjects. This study consisted of 2 parts: Part 1 was a 4-sequence, 4-treatment, 4 Treatment Periods, crossover study to determine the relative bioavailability of current tablets to new capsule formulations of LUM-201; Part 2 was a 2-sequence, 2-treatment, 2 Treatment Periods, crossover study to evaluate the food effect on the bioavailability of the new capsule formulation of LUM-201. […]
Parameter Measured: Cmax (ng/mL)
Field format: number, assumed ng/mL, no unit text.

*Q* Identify the reported Cmax for the following entry. "CC(C)(N)C(=O)N[C@H](COCc1ccccc1)C(=O)N1CCC2(CC1)CN(S(C)(=O)=O)c1ccccc12"
*A* 134
